The following are reported pIC50 results, target or system Acetylcholinesterase (Homo sapiens, UniProt P22303).
The meaning of pIC50 here: minus log10 of the concentration in molar units.

compound: CN(C)C(=O)Oc1ccc(C(O)CNC2CCCCC2)cc1 (configuration not stated)
measured: 3.58

Now for the compound whose pIC50 we want.
Tell me pIC50 of CN(C)C(=O)Oc1cccc(C(O)CNC2CCCCC2)c1 (configuration not stated) when tested on Acetylcholinesterase (Homo sapiens, UniProt P22303).
Sequence (P22303 whole entry): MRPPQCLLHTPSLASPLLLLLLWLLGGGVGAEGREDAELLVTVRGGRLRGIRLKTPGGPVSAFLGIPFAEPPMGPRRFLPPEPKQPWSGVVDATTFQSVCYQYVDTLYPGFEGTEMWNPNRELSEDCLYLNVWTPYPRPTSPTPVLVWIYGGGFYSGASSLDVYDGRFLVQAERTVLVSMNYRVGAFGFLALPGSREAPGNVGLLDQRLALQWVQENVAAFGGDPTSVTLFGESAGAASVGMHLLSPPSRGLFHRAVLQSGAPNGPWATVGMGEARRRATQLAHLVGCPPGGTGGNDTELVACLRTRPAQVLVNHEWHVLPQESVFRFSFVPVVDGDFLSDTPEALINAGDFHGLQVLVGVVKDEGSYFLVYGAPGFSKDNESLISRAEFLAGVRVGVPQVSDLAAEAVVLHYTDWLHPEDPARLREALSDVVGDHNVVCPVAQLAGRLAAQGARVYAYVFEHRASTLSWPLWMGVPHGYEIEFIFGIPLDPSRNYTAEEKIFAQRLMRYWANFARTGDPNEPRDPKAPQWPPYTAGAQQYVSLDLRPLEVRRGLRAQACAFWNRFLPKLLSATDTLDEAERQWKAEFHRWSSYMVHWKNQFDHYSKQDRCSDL
3.10

---

The following are reported pIC50 results, target or system Acetylcholinesterase (Electrophorus electricus, UniProt O42275).
The meaning of pIC50 here: minus log10 of the concentration in molar units.

Tell me pIC50 of CN(C)C(=O)Oc1ccc(C(O)CNC2CCCCC2)cc1 (stereo unspecified) when tested on Acetylcholinesterase (Electrophorus electricus, UniProt O42275).
Sequence (O42275 whole entry): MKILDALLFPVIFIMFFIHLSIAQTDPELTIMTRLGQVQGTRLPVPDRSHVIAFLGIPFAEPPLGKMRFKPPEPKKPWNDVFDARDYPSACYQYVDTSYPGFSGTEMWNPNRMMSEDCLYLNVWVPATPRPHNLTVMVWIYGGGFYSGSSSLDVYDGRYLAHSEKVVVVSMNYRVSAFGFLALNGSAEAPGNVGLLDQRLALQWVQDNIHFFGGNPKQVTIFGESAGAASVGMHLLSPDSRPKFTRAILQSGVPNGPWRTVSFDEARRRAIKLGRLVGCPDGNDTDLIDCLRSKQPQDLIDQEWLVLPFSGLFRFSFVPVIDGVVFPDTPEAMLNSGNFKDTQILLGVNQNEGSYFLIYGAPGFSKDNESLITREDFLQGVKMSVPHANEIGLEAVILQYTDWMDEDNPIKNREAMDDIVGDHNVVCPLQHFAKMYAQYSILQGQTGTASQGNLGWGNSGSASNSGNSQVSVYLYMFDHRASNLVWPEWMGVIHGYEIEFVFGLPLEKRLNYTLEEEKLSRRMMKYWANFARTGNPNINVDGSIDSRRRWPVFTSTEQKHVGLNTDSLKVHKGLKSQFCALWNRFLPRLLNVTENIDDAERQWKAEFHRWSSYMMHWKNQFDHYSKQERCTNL
6.18

Tell me pIC50 of CCC(C)(C)NCC(O)c1cccc(OC(=O)N(C)C)c1 (stereo unspecified) when tested on Acetylcholinesterase (Electrophorus electricus, UniProt O42275).
5.38

Tell me pIC50 of CN(C)C(=O)Oc1cccc(C(O)CNc2ccccc2)c1 (stereo unspecified) when tested on Acetylcholinesterase (Electrophorus electricus, UniProt O42275).
4.17

Tell me pIC50 of CN(C)C(=O)Oc1cccc(C(O)CN2CCCCC2)c1 (stereo unspecified) when tested on Acetylcholinesterase (Electrophorus electricus, UniProt O42275).
5.43

Tell me pIC50 of CN(C)C(=O)Oc1cccc(C(O)CN2CCCC2)c1 (stereo unspecified) when tested on Acetylcholinesterase (Electrophorus electricus, UniProt O42275).
5.50

Tell me pIC50 of CN(C)C(=O)Oc1ccc(C(O)CN2CCCCC2)cc1 (stereo unspecified) when tested on Acetylcholinesterase (Electrophorus electricus, UniProt O42275).
5.45

Tell me pIC50 of CN(C)C(=O)Oc1cccc(C(O)CNc2ccc(I)cc2)c1 (stereo unspecified) when tested on Acetylcholinesterase (Electrophorus electricus, UniProt O42275).
4.54

Tell me pIC50 of CN(C)C(=O)Oc1cccc(C(O)CNC(C)(C)C)c1 (stereo unspecified) when tested on Acetylcholinesterase (Electrophorus electricus, UniProt O42275).
5.22

Tell me pIC50 of CN(C)C(=O)Oc1cccc(C(O)CNC(C)(C)c2ccccc2)c1 (stereo unspecified) when tested on Acetylcholinesterase (Electrophorus electricus, UniProt O42275).
5.15

Tell me pIC50 of CN(C)C(=O)Oc1cccc(C(O)CNC2CCCCC2)c1 (stereo unspecified) when tested on Acetylcholinesterase (Electrophorus electricus, UniProt O42275).
5.73

Tell me pIC50 of CN(C)C(=O)Oc1cccc(C(O)CNC2CCCC2)c1 (stereo unspecified) when tested on Acetylcholinesterase (Electrophorus electricus, UniProt O42275).
5.86

Tell me pIC50 of CN(C)C(=O)Oc1cccc(C(O)CNc2ccc(F)cc2)c1 (stereo unspecified) when tested on Acetylcholinesterase (Electrophorus electricus, UniProt O42275).
4.34

Tell me pIC50 of C#Cc1cccc(NCC(O)c2cccc(OC(=O)N(C)C)c2)c1 (stereo unspecified) when tested on Acetylcholinesterase (Electrophorus electricus, UniProt O42275).
4.15

Tell me pIC50 of CN(C)C(=O)Oc1ccc(C(O)CNC(C)(C)C)cc1 (stereo unspecified) when tested on Acetylcholinesterase (Electrophorus electricus, UniProt O42275).
4.82

Tell me pIC50 of CCC(C)(C)NCC(O)c1ccc(OC(=O)N(C)C)cc1 (stereo unspecified) when tested on Acetylcholinesterase (Electrophorus electricus, UniProt O42275).
4.80
